Measured On: TBK1 (Homo sapiens (Human), UniProt Q9UHD2)
Sequence (Q9UHD2 whole entry): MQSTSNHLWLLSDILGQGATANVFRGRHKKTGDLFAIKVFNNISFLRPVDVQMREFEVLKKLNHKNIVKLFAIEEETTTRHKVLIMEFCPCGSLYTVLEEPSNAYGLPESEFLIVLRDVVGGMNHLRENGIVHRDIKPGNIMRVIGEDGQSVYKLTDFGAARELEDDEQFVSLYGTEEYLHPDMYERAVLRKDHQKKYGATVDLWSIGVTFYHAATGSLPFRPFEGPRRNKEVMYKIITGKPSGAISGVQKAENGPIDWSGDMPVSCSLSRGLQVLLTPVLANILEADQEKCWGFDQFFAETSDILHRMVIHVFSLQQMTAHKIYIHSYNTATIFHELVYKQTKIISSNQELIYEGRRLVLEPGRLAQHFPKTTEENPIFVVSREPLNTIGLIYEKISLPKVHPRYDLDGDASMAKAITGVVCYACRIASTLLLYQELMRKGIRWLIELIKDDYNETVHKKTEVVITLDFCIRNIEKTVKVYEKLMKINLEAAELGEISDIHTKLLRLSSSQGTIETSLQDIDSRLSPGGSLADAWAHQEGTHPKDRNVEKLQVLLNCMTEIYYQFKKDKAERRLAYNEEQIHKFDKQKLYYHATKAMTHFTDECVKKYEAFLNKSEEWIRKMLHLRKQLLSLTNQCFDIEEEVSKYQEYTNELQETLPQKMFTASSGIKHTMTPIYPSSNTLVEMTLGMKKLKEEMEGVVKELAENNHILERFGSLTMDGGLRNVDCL
Protocol Notes: TBK1 TR-FRET enzymatic assay
Recorded pIC50 values for a group of molecules are listed next.
In textbook form, pIC50 equals minus log to base ten of the concentration in mol/L.

Record excerpt, results attached:
Chemical String	pIC50
COC(=O)N1CC[C@H](Oc2ccc(-c3ncnc(Nc4ccc(N5CCN(C6COC6)CC5)cc4)n3)cc2C#N)[C@H](F)C1	7.89
N#Cc1cc(-c2ncnc(Nc3ccccc3)n2)ccc1OC1CCOCC1	8.10
N#Cc1cc(-c2ncnc(Nc3ccc(N4CCN(C5COC5)CC4)cc3)n2)ccc1O[C@H]1CCN(C(=O)C2(O)CC2)C[C@H]1F	8.22
N#Cc1cc(-c2ncnc(Nc3ccc(N4CCNCC4)c(F)c3)n2)ccc1O[C@H]1CCN(C=O)C[C@H]1F	8.52
COc1cc(Nc2ncnc(-c3ccc(O[C@H]4CCN(C(=O)[C@H](C)O)CC4(F)F)c(C#N)c3)n2)ccc1N1CCN(C2COC2)CC1	8.70

Sample C[C@H](O)C(=O)N1CC[C@H](Oc2ccc(-c3ncnc(Nc4ccc(N5CCN(C)CC5)cc4)n3)cc2C#N)[C@H](F)C1 — what was its pIC50?
8.70

Sample CS(=O)(=O)N1CC[C@@H](Oc2ccc(-c3ncnc(Nc4ccc(N5CCN(C6COC6)CC5)cc4)n3)cc2C#N)C1 — what was its pIC50?
7.59

###

Recorded pIC50 values for a group of compounds are listed next.
Measured On: TBK1 (Homo sapiens (Human), UniProt Q9UHD2)
Protocol Notes: TBK1 TR-FRET enzymatic assay;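 further: phosphorylation of a biotinylated Ser/Thr peptide by purified full-length recombinant TBK1, read by TR-FRET after 240 min at 25 °C, IC50 is the geometric mean of at least four runs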
In textbook form, pIC50 equals minus log to base ten of the concentration in mol/L.

Record excerpt, results attached:
Chemical String	Measured On	Assay Value
N#Cc1cc(-c2ncnc(Nc3ccc(N4CCOCC4)cc3F)n2)ccc1O[C@H]1CCN(C(=O)[C@@H](O)CO)C[C@H]1F	TBK1 (Homo sapiens (Human), UniProt Q9UHD2)	8.52
N#Cc1cc(-c2ncnc(Nc3ccc(N4CCN(C5COC5)CC4)cc3)n2)ccc1O[C@H]1CCN(C(=O)[C@@H]2COC(=O)N2)C[C@H]1F	TBK1 (Homo sapiens (Human), UniProt Q9UHD2)	8.70
CC(=O)N1CCN(c2ccc(Nc3ncnc(-c4ccc(OC5CCOCC5)c(C#N)c4)n3)cc2)CC1	TBK1 (Homo sapiens (Human), UniProt Q9UHD2)	9.00
C[C@@H]1C[C@@H](Oc2ccc(-c3ncnc(Nc4ccc(N5CCN(C6COC6)CC5)cc4)n3)cc2C#N)CCN1C(=O)[C@@H](C)O	TBK1 (Homo sapiens (Human), UniProt Q9UHD2)	6.99
CC1(C)CN(C(=O)c2ccn[nH]2)C[C@@H](F)[C@H]1Oc1ccc(-c2ncnc(Nc3ccc(N4CCN(C5COC5)CC4)cc3)n2)cc1C#N	TBK1 (Homo sapiens (Human), UniProt Q9UHD2)	8.52

Sample C[C@H]1CN(C2COC2)CCN1c1ccc(Nc2ncnc(-c3ccc(O[C@H]4CCN(C(=O)CO)C[C@H]4F)c(C#N)c3)n2)cc1 — what was its pIC50?
8.52

Sample N#Cc1cc(-c2ncnc(Nc3ccc(N4CCN(C5COC5)CC4)cc3)n2)ccc1O[C@H]1CCN(C(=O)[C@H]2CC(F)(F)CN2)C[C@H]1F — what was its pIC50?
7.60

###

Measured On: IKKε (Homo sapiens (Human))
Sequence (Q14164 whole entry): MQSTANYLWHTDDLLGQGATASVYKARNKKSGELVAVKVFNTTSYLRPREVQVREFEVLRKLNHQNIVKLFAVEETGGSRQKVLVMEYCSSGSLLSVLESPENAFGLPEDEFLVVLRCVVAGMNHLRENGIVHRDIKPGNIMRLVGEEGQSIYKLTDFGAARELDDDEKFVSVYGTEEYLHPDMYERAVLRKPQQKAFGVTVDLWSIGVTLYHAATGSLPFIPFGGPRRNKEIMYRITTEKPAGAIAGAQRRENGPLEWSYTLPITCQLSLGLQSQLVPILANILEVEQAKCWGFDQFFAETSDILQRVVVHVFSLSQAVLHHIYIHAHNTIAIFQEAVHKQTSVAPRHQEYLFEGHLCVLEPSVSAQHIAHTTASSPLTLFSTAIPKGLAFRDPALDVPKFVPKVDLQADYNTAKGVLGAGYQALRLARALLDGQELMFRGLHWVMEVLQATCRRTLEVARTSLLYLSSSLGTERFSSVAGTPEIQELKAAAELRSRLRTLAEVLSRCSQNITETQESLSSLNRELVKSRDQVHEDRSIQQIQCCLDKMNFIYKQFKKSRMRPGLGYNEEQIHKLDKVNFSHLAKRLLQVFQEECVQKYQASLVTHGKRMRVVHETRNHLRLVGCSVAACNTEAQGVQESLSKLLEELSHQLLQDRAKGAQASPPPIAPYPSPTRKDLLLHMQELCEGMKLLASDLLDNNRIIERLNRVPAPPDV
Protocol Notes: IKKε TR-FRET enzymatic assay
Format: biochemical
Settings: read-out: IKKe IC50
Recorded pIC50 values for a group of molecules are listed next.
In textbook form, pIC50 equals minus log to base ten of the concentration in mol/L.

Molecule	pIC50
C[C@@H](O)C(=O)N1CC[C@H](Oc2ccc(-c3ncnc(Nc4ccc(N5CCN(C6COC6)CC5)cc4)n3)cc2C#N)C[C@@H]1C [Example 182]	7.02
C[C@H](O)C(=O)N1CCC(Oc2ccc(-c3ncnc(Nc4ccc(N5CCN(C6COC6)CC5)cc4)n3)cc2C#N)C(F)(F)C1 (stereo partly shown) [Example 154]	8.52
CS(=O)(=O)N1CCN(c2ccc(Nc3ncnc(-c4ccc(OC5CCOCC5)c(C#N)c4)n3)cc2)CC1 [Example 66]	8.30
C[C@H](O)C(=O)N1CC[C@H](Oc2ccc(-c3ncnc(Nc4cnc(N5CCN(C6COC6)CC5)c(F)c4)n3)cc2C#N)[C@H](F)C1 [Example 358]	7.96
N#Cc1cc(-c2ncnc(Nc3ccc(C4CCN(C5COC5)CC4)cc3)n2)ccc1OC1CCS(=O)(=O)CC1 [Example 270]	7.37

We next turn to a different molecule, shown below.
Sample N#Cc1cc(-c2ncnc(Nc3ccc(N4CCN(C5COC5)CC4)nc3)n2)ccc1OC1CCOCC1 [Example 43] — what was its pIC50?
7.82
